Data origin, for the record: patent US7514411B2

Overview of recorded pIC50 for various compounds
System: Porcine Smooth Muscle Cell
test-description: Effects of compounds on cell proliferation using 3H thymidine incorporation
Assay type: cell-based
recorded-conditions: serum/growth factor stimulated cells, 3H thymidine incorporation, 24-36 h; read-out: Porcine Smooth Muscle Cell Antiproliferation IC50
pIC50: −log10 of the molar value.

- cpd-smiles: "CC(=O)OC[C@H]1O[C@H](O[C@H]2[C@H](OC(C)=O)[C@@H](OC(C)=O)[C@H](OCc3ccc(Cl)c(NC(=O)[C@@H](N)CC(=O)OC(C)(C)C)c3)O[C@@H]2COC(C)=O)[C@H](OC(C)=O)[C@@H](OC(C)=O)[C@@H]1OC(C)=O"
  measured-target: "Porcine Smooth Muscle Cell"
  pIC50: 5.34
- cpd-smiles: "CC(=O)OC[C@H]1O[C@@H](SCc2ccc(Cl)c([N+](=O)[O-])c2)[C@H](OC(C)=O)[C@@H](OC(C)=O)[C@@H]1O[C@H]1O[C@H](COC(C)=O)[C@@H](OC(C)=O)[C@H](OC(C)=O)[C@H]1OC(C)=O"
  measured-target: "Porcine Smooth Muscle Cell"
  pIC50: 5.94
- cpd-smiles: "O=C(OC[C@H]1O[C@H](O[C@H]2[C@H](O)[C@@H](O)[C@H](OCc3ccc(Cl)c([N+](=O)[O-])c3)O[C@@H]2COC(=O)c2cccnc2)[C@H](O)[C@@H](O)[C@@H]1O)c1cccnc1"
  measured-target: "Porcine Smooth Muscle Cell"
  pIC50: 5.18
- cpd-smiles: "CC(=O)Nc1cc(CO[C@@H]2O[C@H](CO[Si](C)(C)C(C)(C)C)[C@@H](O[C@H]3O[C@H](CO[Si](C)(C)C(C)(C)C)[C@@H](O)[C@H](O)[C@H]3O)[C@H](O)[C@H]2O)ccc1Cl"
  measured-target: "Porcine Smooth Muscle Cell"
  pIC50: 5.41

====

Test system: Porcine Smooth Muscle Cell
test-description: Effects of compounds on cell proliferation using 3H thymidine incorporation
Assay type: cell-based
recorded-conditions: serum/growth factor stimulated cells, 3H thymidine incorporation, 24-36 h; read-out: Porcine Smooth Muscle Cell Antiproliferation IC50
Counter-ions that a name gives are not always drawn.
Overview of recorded IC50 for various molecules

- molecule: "O=C(Nc1cc(COC2OC(COC(=O)c3ccccc3)C(OC3OC(CO)C(O)C(O)C3O)C(O)C2O)ccc1Cl)c1cccnc1 (centres unmarked) [Example 17, hydrochloride]"
  IC50 (µM): 0.245
- molecule: "CC(=O)OC[C@H]1O[C@@H](SCc2ccc(Cl)c(N)c2)[C@H](OC(C)=O)[C@@H](OC(C)=O)[C@@H]1O[C@H]1O[C@H](COC(C)=O)[C@@H](OC(C)=O)[C@H](OC(C)=O)[C@H]1OC(C)=O"
  IC50 (µM): 0.667
- molecule: "CC(=O)Nc1cc(CO[C@@H]2O[C@H](COC(=O)c3ccccc3)[C@@H](O[C@H]3O[C@H](COC(=O)c4ccccc4)[C@@H](OC(C)=O)[C@H](OC(C)=O)[C@H]3OC(C)=O)[C@H](OC(C)=O)[C@H]2OC(C)=O)ccc1Cl"
  IC50 (µM): 0.36
- molecule: "CC(=O)O[C@@H]1[C@@H](OC(C)=O)[C@@H](O[C@H]2[C@H](OC(C)=O)[C@@H](OC(C)=O)[C@H](OCc3ccc(C)c([N+](=O)[O-])c3)O[C@@H]2Cn2cnc([N+](=O)[O-])c2)O[C@H](Cn2cnc([N+](=O)[O-])c2)[C@H]1OC(C)=O"
  IC50 (µM): 4.7
- molecule: "O=C(OC[C@H]1O[C@H](O[C@H]2[C@H](O)[C@@H](O)[C@H](OCc3ccc(Cl)c([N+](=O)[O-])c3)O[C@@H]2CO)[C@H](O)[C@@H](O)[C@@H]1O)c1cccnc1"
  IC50 (µM): 73.2
- molecule: "CC(=O)OC[C@H]1O[C@H](O[C@H]2[C@H](OC(C)=O)[C@@H](OC(C)=O)[C@H](OCc3ccc(Cl)c(NC(=O)[C@H](C)NC(=O)OCC4c5ccccc5-c5ccccc54)c3)O[C@@H]2COC(C)=O)[C@H](OC(C)=O)[C@@H](OC(C)=O)[C@@H]1OC(C)=O"
  IC50 (µM): 1.71
- molecule: "Cc1ccc(S(=O)(=O)OC[C@H]2O[C@H](O[C@H]3[C@H](O)[C@@H](O)[C@H](OCc4ccc(C)c([N+](=O)[O-])c4)O[C@@H]3COS(=O)(=O)c3ccc(C)cc3)[C@H](O)[C@@H](O)[C@@H]2O)cc1"
  IC50 (µM): 0.74
- molecule: "CC(=O)Nc1cc(CO[C@@H]2O[C@H](CO[Si](C)(C)C(C)(C)C)[C@@H](O[C@H]3O[C@H](CO[Si](C)(C)C(C)(C)C)[C@@H](O)[C@H](O)[C@H]3O)[C@H](O)[C@H]2O)ccc1C"
  IC50 (µM): 6.1
